Molecular target: T1, mRBM20(513-621) N526A (Mus musculus, UniProt Q3UQS8 513-621, N526A)
T1 sequence: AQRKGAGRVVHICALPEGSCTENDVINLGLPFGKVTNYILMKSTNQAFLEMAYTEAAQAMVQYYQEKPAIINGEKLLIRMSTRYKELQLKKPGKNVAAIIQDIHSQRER
Experiment: ITC

{"binder": "AUCUUA (ssRNA)", "Kd": "9 µM"}
